- Test system: SK-OV-3 ovarian
- testDetails: NCI tumour cell line growth inhibition, 48 h
Where a SMILES comes first, the peptide text is derived from it. The star is where a group is joined. Fmoc = O=C(OCC1c2ccccc2-c2ccccc21)*; Boc = CC(C)(C)OC(=O)*
Measured TGI, listed per entry for reference.

Worked set:
- compound: "CN(C)c1ccc(/C=N/NC(=O)c2cnc3ccccc3c2)cc1"
  TGI: "> 100 µM"
- compound: "Nc1cc(N)c2nc(-c3ccccc3)c(Oc3ccc(Cl)c(Cl)c3)nc2c1"
  TGI: "65.9 µM"
- compound: "CCN1CCC(O)(/C=C/c2ccc(Cl)cc2)C(C(=O)/C=C/c2ccc(Cl)cc2)C1 (stereo not given)"
  TGI: "61.7 µM"
- compound: "CC(=O)Nc1ccccc1S(=O)c1ccccc1 (stereo not given)"
  TGI: "> 100 µM"

Look up TGI of CC1(C)O[C@@H](CP(c2ccc3ccccc3c2)c2ccc3ccccc3c2)[C@H](CP(c2ccc3ccccc3c2)c2ccc3ccccc3c2)O1 and report it.
> 100 µM

Look up TGI of Nc1ncnc2c1ncn2COC/C=C/I and report it.
> 100 µM

Look up TGI of Nc1ccc2c(c1)S(=O)(=O)c1cc(N)ccc1-2 and report it.
> 100 µM

Look up TGI of CC(=O)Nc1ccc2c3c(cc(O)c2c1)N(C(=O)CCCCCC(=O)Nc1ccc2c4c(cc(O)c2c1)N(C(=O)OC(C)(C)C)CC4CCl)CC3CCl (stereo not given) and report it.
> 47.6 µM

Look up TGI of C1COCCOP2(N3CC3)=NP(N3CC3)(=NP(N3CC3)(N3CC3)=N2)OCCOCCO1 (stereo not given) and report it.
> 100 µM

Look up TGI of CC(C)Cn1cnc2c(SCc3ccccn3)nc(N)nc21 and report it.
> 100 µM

Look up TGI of O=C(O)CSc1nnc2c3ccccc3c3ccccc3c2n1 and report it.
> 100 µM

Look up TGI of CC(=O)c1cccc(NC(=O)/C(=N\NC(=S)NN)C2C(=O)Nc3ccccc3S2=O)c1 (stereo not given) and report it.
> 100 µM

Look up TGI of CCC12C=CCN3CCC4(C(=C(C(=O)OC)C1)Nc1ccccc14)[C@H]32 (stereo not given in full) and report it.
49.7 µM

Look up TGI of Cc1cn(C2CC(O)C(Cn3nncc3Cn3ccc(=O)[nH]c3=O)O2)c(=O)[nH]c1=O (stereo not given) and report it.
> 100 µM

Look up TGI of CC1SC(c2cccc(Cl)c2)N(NC(=O)C(O)c2ccccc2)C1=O (stereo not given) and report it.
> 100 µM

Look up TGI of CCCC(=O)OC1=C(c2ccccc2)Sc2ccccc2-n2cccc21 and report it.
> 10 µM

Look up TGI of O=C(NC(Cc1ccccc1)P(=O)(O)c1ccccc1)OCc1ccccc1 (stereo not given) and report it.
> 100 µM

Look up TGI of CC(CNc1nc(Nc2ccc(Cl)c(Cl)c2)nc(C(Cl)(Cl)Cl)n1)N(C)C (stereo not given) and report it.
3.18 µM

Look up TGI of C=C(C)COC(=O)COCC(=O)OCC(=C)C and report it.
> 100 µM

Look up TGI of NNC(=O)CSc1nnc(CCCCCCCCc2nnc(SCC(=O)NN)o2)o1 and report it.
> 100 µM

Look up TGI of CC1=C(C(=O)NCc2ccccc2)C(c2ccccc2O)C(C(=O)NCc2ccccc2)=C(C)N1 and report it.
64.9 µM

Look up TGI of CCc1cccc(CC)c1NC(=O)C1=CNC(C)=C(C(=O)Nc2c(CC)cccc2CC)C1c1ccc(O)c(OC)c1 (stereo not given) and report it.
> 100 µM

Look up TGI of CC(C)(C)OC(=O)NCCCCC(NC(=O)C(Cc1c[nH]c2ccccc12)NC(=O)OCC1c2ccccc2-c2ccccc21)C(=O)O (stereo not given) (Fmoc-Trp-Lys(Boc)-OH; configuration not given here) and report it.
35.6 µM

Look up TGI of COc1c(OC2OC(CO)C(O)C(O)C2O)cc2c(c1OC)-c1ccc(OC)c(=O)cc1[C@@H](NC(C)=O)CC2 (stereo not given in full) and report it.
> 100 µM

Hello, the source for this data is PubChem BioAssay (NCI), in case you need it.
